tested on: ethanol hydrochloric acid ulcer; experiment: Inhibitory activity against ethanol hydrochloric acid ulcer; assay type: in vivo; conditions: SD male rats fasted 24 hours; 30mg/kg orally, one hour before 150 mM hydrochloric acid in 60% ethanol; ulcer index = total lesion length, one hour later
Structures can show the parent of a compound that is named as a salt.
Short version: Percent inhibition of ulceration (%) at least 90% is T, less is F.

CNc1nc2cccnc2s1 [Example 1, hydrochloride] :: T
COc1ccc(Nc2nc3cccnc3s2)cc1 [Example 5, hydrochloride] :: F
c1ccc(CNc2nc3cccnc3s2)cc1 [Example 3, hydrochloride] :: F

Pending compound:
Challenge: Percent inhibition of ulceration (%) >= 90% for CN(C)c1ccc(Nc2nc3cccnc3s2)cc1 [Example 4, hydrochloride] ?
Response given: F
